- ASSAY_TARGET: BCL-XL (Homo sapiens, UniProt Q07817)
- Construct: endogenous in cells; host or cells: MOLT-4
- Sequence (Q07817 whole entry): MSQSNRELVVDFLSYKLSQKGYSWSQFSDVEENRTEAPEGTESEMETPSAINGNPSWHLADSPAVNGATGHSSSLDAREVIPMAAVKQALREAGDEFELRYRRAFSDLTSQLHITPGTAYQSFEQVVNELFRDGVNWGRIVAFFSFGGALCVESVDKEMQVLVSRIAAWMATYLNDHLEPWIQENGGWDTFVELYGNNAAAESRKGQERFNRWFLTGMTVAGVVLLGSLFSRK
- METHOD_NOTES: Bcl-xL ELISA degradation in MOLT-4 cells, 6 h
- Format: cell-based
Parameter Dmax: see the listing below.

COMPOUND	VALUE_OBSERVED
Cc1ncsc1-c1ccc([C@H](C)NC(=O)[C@@H]2C[C@@H](O)CN2C(=O)C(c2cc(N3CCC(CN4CCC(NC(=O)c5nc(N6CCc7cccc(C(=O)Nc8nc9ccccc9s8)c7C6)ccc5-c5cnn(CC6CCCCC6)c5C)CC4)CC3)no2)C(C)C)cc1 (stereo partly drawn) [I-238]	< 50%
Cc1ncsc1-c1ccc([C@H](C)NC(=O)[C@@H]2C[C@@H](O)CN2C(=O)[C@H](c2cc(N3CC(N4CCC(NC(=O)c5nc(N6CCc7cccc(C(=O)Nc8nc9ccccc9s8)c7C6)ccc5-c5cnn(CC6CCCCC6)c5C)CC4)C3)no2)C(C)C)cc1 [I-235]	< 50%

## Input Find the measured Dmax of Cc1cc(S(=O)(=O)NC(=O)c2nc(N3CCc4cccc(C(=O)Nc5nc6ccccc6s5)c4C3)ccc2-c2cnn(CC3CCCCC3)c2C)ccc1N1CCC(C(=O)N[C@H](C(=O)N2C[C@H](O)C[C@H]2C(=O)N[C@@H](C)c2ccc(-c3scnc3C)cc2)C(C)(C)C)CC1 [I-273] and report it.
## Output > 75%

## Input Please give the documented Dmax of Cc1ncsc1-c1ccc([C@H](C)NC(=O)[C@@H]2C[C@@H](O)CN2C(=O)[C@@H](NC(=O)CCCCN(C)CCCS(=O)(=O)NC(=O)c2nc(N3CCc4cccc(C(=O)Nc5nc6ccccc6s5)c4C3)ccc2-c2cnn(CC3CCCCC3)c2C)C(C)(C)C)cc1 [I-232]
## Output 50 to 75%

## Input Give me measured Dmax, please, for this compound: Cc1cc(N(C)c2ccc(-c3cnn(CC45CC6CC(CC(C6)C4)C5)c3C)c(C(=O)NS(=O)(=O)CCCCCC(=O)N[C@H](C(=O)N3C[C@H](O)C[C@H]3C(=O)N[C@@H](C)c3ccc4c(c3)c(C)nn4C)C(C)(C)C)n2)nnc1Nc1nc2ccccc2s1 (single isomer, unassigned) [I-491]
## Output > 75%

## Input # return recorded Dmax for entry Cc1ncsc1-c1ccc([C@H](C)NC(=O)[C@@H]2C[C@@H](O)CN2C(=O)[C@@H](NC(=O)C2CCN(c3ccc(S(=O)(=O)NC(=O)c4nc(N5CCc6cccc(C(=O)Nc7nc8ccccc8s7)c6C5)ccc4-c4ccnc(OC(C)C)c4C)cc3)CC2)C(C)(C)C)cc1 [I-300]
## Output 50 to 75%

## Input Consider the compound COc1nn(C)c2ccc([C@@H](C)NC(=O)[C@@H]3C[C@@H](O)CN3C(=O)[C@@H](NC(=O)CCCCCS(=O)(=O)NC(=O)c3nc(N4CCc5cccc(C(=O)Nc6nc7cccnc7s6)c5C4)ccc3-c3cnn(CC4CCCCC4)c3C)C(C)(C)C)cc12 [I-490] and give its recorded Dmax.
## Output > 75%

## Input Provide Dmax value for the following compound: Cc1ncsc1-c1ccc([C@H](C)NC(=O)[C@@H]2C[C@@H](O)CN2C(=O)[C@@H](NC(=O)C2CCN(CCCS(=O)(=O)NC(=O)c3nc(N4CCc5cccc(C(=O)Nc6nc7ccccc7s6)c5C4)ccc3-c3cnn(CC4CCCCC4)c3C)CC2)C(C)(C)C)cc1 [I-381]
## Output > 75%
